- Test system: CSNK2A1
- run conditions: concentration: 1 μM, replicates: in singlicate; n = 1;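 note: KINOMEscan kinase panel screen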
# maps each entry to its %Inh
quantity kind: %Inh (%)

smiles code | quantity kind | endpoint unit | observed value
COc1cc(Nc2ccnc3cc(-c4ccncc4)ccc23)cc(OC)c1OC.Cl | %Inh | % | 7
Cc1ccc(O)cc1Nc1ccnc2cc(-c3ccc(CN4CCCCC4)o3)ccc12 | %Inh | % | 0
Nc1ncnc2scc(-c3ccc(NC(=O)Cc4cc(F)ccc4F)cc3)c12.O=C(O)C(F)(F)F | %Inh | % | 13
Cc1ccc(NC(=O)c2ccc(Cl)c(Cl)c2)cc1-c1ccc(C(=O)Nc2ccncc2)cc1 | %Inh | % | 0

---

- System: CDK4-cyclinD3
- run conditions: concentration: 1 μM, replicates: in singlicate; n = 1
quantity kind: %Inh

smiles code | quantity kind | observed value
Nc1ncc(-c2ccc3nccc(-c4ccncc4)c3c2)cc1S(=O)(=O)N1CCCCC1 | %Inh | 13%
COc1cccc(-c2nc(-c3ccccc3)[nH]c2-c2ccncc2)c1 | %Inh | 7%
N#CC1(c2cccc(C(=O)Nc3cccc(Oc4ccc5nc(NC(=O)C6CC6)sc5n4)c3)c2)CC1 | %Inh | 1%
Cc1cc(-c2ccnc(Nc3cccc(C#N)c3)n2)cc(C)c1O | %Inh | 22%

---

The following compounds are shown together with reported %Inh values.
- System: PRKR
- Construct: gene EIF2AK2
- run conditions: concentration: 1 μM, replicates: in singlicate; n = 1

smiles code | %Inh
COc1cccc(-c2nc(-c3ccccc3)[nH]c2-c2ccncc2)c1 | 0%
CCn1cnc2c(NCc3ccccc3)ncnc21 | 8%
Cc1cccc(Nc2nc(N[C@H]3CCCC[C@H]3N)ncc2C(N)=O)c1.Cl | 30%
COc1cccc(C2=C(Nc3cccc(O)c3)C(=O)NC2=O)c1 | 15%
Fc1cc(Cl)ccc1Nc1ccnc2cc(-c3ccc(CN4CCSCC4)o3)ccc12 | 3%
CC(=O)Nc1cn2nc(Oc3cccc(NC(=O)c4cccc(C(F)(F)F)c4)c3)ccc2n1 | 4%
CC(C)c1nc(-c2ccc(F)c(NS(=O)(=O)c3c(F)cccc3F)c2)c(-c2ccnc(Nc3ccc(N4CCOCC4)nc3)n2)s1 | 35%
Cn1cc(-c2ccc3c(c2)CCN3C(=O)Cc2cc(F)cc(C(F)(F)F)c2)c2c(N)ncnc21 | 15%
CCNc1nccc(-c2c(-c3ccc(F)cc3)ncn2C2CCN(C)CC2)n1 | 0%

---

- Test system: MARK2
- run conditions: concentration: 1 μM, replicates: in singlicate; n = 1

molecule | %Inh (%)
Cc1nn2c(=O)cc(N3CCO[C@H](C)C3)nc2n1Cc1cccc(Cl)c1Cl | 0
Cc1ccc(NC(=O)c2cccc(N3CCCCC3)c2)cc1-c1ccc(C(=O)NCC2CC2)cc1 | 0
Cc1ccccc1CC(=O)N1CCc2cc(-c3cn(C)c4ncnc(N)c34)ccc21 | 0
N#CC1(c2cccc(C(=O)Nc3cccc(Oc4ccc5nc(NC(=O)C6CC6)sc5n4)c3)c2)CC1 | 0
O=C(Nc1c(F)cccc1F)c1cc(C(=O)c2ccccc2F)c[nH]1 | 0
Cc1ccc(-c2ccc3occ(-c4ccc(S(C)=O)cc4)c3c2)nn1 (stereo not drawn) | 14
O=C(Nc1n[nH]c2cc(-c3cccs3)ccc12)C1CC1 | 21
Cc1ccc(C)c(NC(=O)Nc2ccc(C)c(-c3ccc(C(=O)Nc4ccncc4)cc3)c2)c1 | 0
CN(c1ccc(NC(=O)N2CCN(CCCN3CCOCC3)CC2)cc1)c1ccnc(Nc2ccc(CS(C)(=O)=O)cc2)n1.Cl | 1
Nc1ncnc2scc(-c3ccc(NC(=O)Cc4cc(F)ccc4F)cc3)c12.O=C(O)C(F)(F)F | 31
CCNc1nccc(-c2c(-c3ccc(F)cc3)ncn2C2CCN(C)CC2)n1 | 0
Cc1ccc(O)cc1Nc1ccnc2cc(-c3ccc(CN4CCCCC4)o3)ccc12 | 8
Cc1ccc(NC(=O)c2ccc(Cl)c(Cl)c2)cc1-c1ccc(C(=O)Nc2ccncc2)cc1 | 0
Nc1cccc(-c2ccc3c(N)n[nH]c3c2)c1 | 0
Cl.Cl.NC(CNC(=O)c1cc(Br)c(-c2ccnc3[nH]ccc23)s1)c1ccccc1 (stereo not drawn) | 22
Cc1cccc(Nc2nc(NCCN)ncc2C(N)=O)c1 | 39
N#Cc1cnc2cc(-c3cnc(CNCCN4CCOCC4)s3)ccc2c1Nc1ccc(Oc2ccccc2)cc1 | 0
CCNC(=O)/C=C/c1n[nH]c2cc(Sc3ccccc3C(=O)NC)ccc12 | 34
COc1cc(Nc2ccnc3cc(-c4ccncc4)ccc23)cc(OC)c1OC.Cl | 0
CCn1c(-c2nonc2N)nc2c(-c3ccccc3)ncc(OCCCN)c21.O=C(O)C(F)(F)F.O=C(O)C(F)(F)F | 0
CC(C)(C)c1ccc(C(=O)Nc2cn3cc(-n4ccnc4)ccc3n2)cc1 | 3
CN(c1ccc2c(c1)nc(NCc1ccccc1)n2C)c1ccnc(Nc2ccc(CS(C)(=O)=O)cc2)n1.Cl | 0
CN1CCN(Cc2ccc(NC(=O)Nc3ccc(N(C)c4ccnc(Nc5ccc(CS(C)(=O)=O)cc5)n4)cc3)cc2)CC1.Cl | 60
CCn1cnc2c(NCc3ccccc3)ncnc21 | 0
O=C(Nc1n[nH]c2nc(-c3ccccc3)ccc12)C1CC1 | 0
Nc1ncc(-c2cn[nH]c2)c2scc(-c3ccc4c(c3)CCN4C(=O)Cc3ccccc3)c12 | 7
Cl.Cl.NCC(NC(=O)c1cc(-c2cccnc2)c(-c2ccnc3[nH]ccc23)s1)c1ccccc1 (stereo not drawn) | 40
CS(=O)(=O)c1cccc(CNc2nc(Nc3ccc4c(c3)CCC(=O)N4)ncc2C(F)(F)F)c1 | 16
c1ccc(Oc2ccc(Nc3ccnc4cc(-c5ccc(CN6CCCCC6)o5)ccc34)cc2)nc1 | 0
CC(C)c1nc(-c2ccc(F)c(NS(=O)(=O)c3c(F)cccc3F)c2)c(-c2ccnc(Nc3ccc(N4CCOCC4)nc3)n2)s1 | 15
Cc1cc(-c2ccnc(Nc3cccc(C#N)c3)n2)cc(C)c1O | 0
NCCC(NC(=O)c1cc(Br)c(-c2ccnc3[nH]ccc23)s1)c1ccccc1.O=C(O)C(F)(F)F.O=C(O)C(F)(F)F (stereo not drawn) | 26
Cn1cc(-c2cnc(N)c3c(-c4ccc5c(c4)CCN5C(=O)Cc4ccccc4)csc23)cn1 | 5

---

- Test system: MAP3K4
- run conditions: concentration: 1 μM, replicates: in singlicate; n = 1
%Inh: recorded values

compound | assayed system | endpoint unit | %Inh
Cc1cc(-c2ccnc(Nc3cccc(C#N)c3)n2)cc(C)c1O | MAP3K4 | % | 18
CN(c1ccc(NC(=O)N2CCN(CCCN3CCOCC3)CC2)cc1)c1ccnc(Nc2ccc(CS(C)(=O)=O)cc2)n1.Cl | MAP3K4 | % | 15
COc1cccc(NC(=O)NCCNc2ccnc(Nc3ccc(F)cc3)n2)c1 | MAP3K4 | % | 36
CC(C)NCC(Cc1ccccc1)NC(=O)c1cc(Br)c(-c2ccnc3[nH]ccc23)s1.Cl.Cl (centres unmarked) | MAP3K4 | % | 0
NCCC(NC(=O)c1cc(Br)c(-c2ccnc3[nH]ccc23)s1)c1ccccc1.O=C(O)C(F)(F)F.O=C(O)C(F)(F)F (centres unmarked) | MAP3K4 | % | 0
Nc1cccc(-c2ccc3c(N)n[nH]c3c2)c1 | MAP3K4 | % | 4
CNc1nccc(-c2ccc3c(N)n[nH]c3c2)n1 | MAP3K4 | % | 0
Cc1ccccc1CC(=O)N1CCc2cc(-c3cn(C)c4ncnc(N)c34)ccc21 | MAP3K4 | % | 90

---

- System: HIPK4
- run conditions: concentration: 1 μM, replicates: in singlicate; n = 1
# %Inh per record follows

compound | endpoint unit | %Inh
COC(=O)Nc1nc2ccc(Oc3ccc(NC(=O)Nc4cc(C(F)(F)F)ccc4F)cc3)cc2[nH]1.Cl [GW654607] | % | 92
COc1ccc(NC(=O)c2ccoc2)cc1-c1ccc(C(=O)NCC2CC2)cc1 [GW810437] | % | 6
Cc1ccccc1CC(=O)N1CCc2cc(-c3cn(C)c4ncnc(N)c34)ccc21 [GSK2603346] | % | 0
O=C(Nc1n[nH]c2cc(-c3cccs3)ccc12)C1CC1 [SB-731284] | % | 6
CN(c1ccc(NC(=O)Nc2cccc(Cl)c2)cc1)c1ccnc(N)n1.Cl [GW830707] | % | 79
CC(C)NCC(Cc1ccccc1)NC(=O)c1cc(Br)c(-c2ccnc3[nH]ccc23)s1.Cl.Cl (stereo not drawn) [GSK1383281] | % | 91.6
O=C(Nc1c(F)cccc1F)c1cc(C(=O)c2ccccc2F)c[nH]1 [GSK1326180] | % | 0
Cc1cccc(Nc2nc(NCCN)ncc2C(N)=O)c1 [GSK1292139] | % | 0
Cc1ccc(O)cc1Nc1ccnc2cc(-c3ccc(CN4CCCCC4)o3)ccc12 [GW557777] | % | 0

---

- Tested on: GSK3B
- run conditions: concentration: 1 μM, replicates: in singlicate; n = 1
// map %Inh to label using low = under 3%, medium = from 3% up to 20%, high = 20% and over

molecule | assayed system | cat
Cn1cc(-c2cnc(N)c3c(-c4ccc5c(c4)CCN5C(=O)Cc4ccccc4)csc23)cn1 | GSK3B | low
CC(C)c1nc(-c2cccc(NS(=O)(=O)c3c(F)cccc3F)c2)c(-c2ccnc(Nc3ccc(N4CCOCC4)nc3)n2)s1.Cl | GSK3B | medium
O=C(Nc1c(F)cccc1F)c1cc(C(=O)c2ccccc2F)c[nH]1 | GSK3B | low
CN1CCN(Cc2ccc(NC(=O)Nc3ccc(N(C)c4ccnc(Nc5ccc(CS(C)(=O)=O)cc5)n4)cc3)cc2)CC1.Cl | GSK3B | high
CCn1cnc2c(NCc3ccccc3)ncnc21 | GSK3B | high
Cc1ccc(-c2ccc3occ(-c4ccc(S(C)=O)cc4)c3c2)nn1 (stereo not drawn) | GSK3B | low
CC(C)NCC(Cc1ccccc1)NC(=O)c1cc(Br)c(-c2ccnc3[nH]ccc23)s1.Cl.Cl (stereo not drawn) | GSK3B | low
Nc1ncnc2scc(-c3ccc(NC(=O)Cc4cc(F)ccc4F)cc3)c12.O=C(O)C(F)(F)F | GSK3B | high
Cc1ccc(C)c(NC(=O)Nc2ccc(C)c(-c3ccc(C(=O)Nc4ccncc4)cc3)c2)c1 | GSK3B | medium
CN(C)CCOc1ccc(-c2cc(-c3ccc(Cl)c(O)c3)c(-c3ccncc3)[nH]2)cc1.Cl.Cl | GSK3B | medium
COc1ccc(NC(=O)c2ccoc2)cc1-c1ccc(C(=O)NCC2CC2)cc1 | GSK3B | high
Cc1cc(-c2ccnc(Nc3cccc(C#N)c3)n2)cc(C)c1O | GSK3B | high
CCOc1nccc(-c2c(-c3ccc(F)cc3)ncn2C2CCNCC2)n1 | GSK3B | high
Cc1ccc(O)cc1Nc1ccnc2ccc(C(C)(C)C)cc12 | GSK3B | high
COc1cc(Nc2nccc(N3CCC(NC(=O)Nc4ccc5c(c4)OCO5)C3)n2)cc(OC)c1OC (stereo not drawn) | GSK3B | low
Cc1cc(-c2c(-c3ccc(F)cc3)ncn2CCCN2CCOCC2)nc(N)n1 | GSK3B | high
Cn1cc(-c2ccc3c(c2)CCN3C(=O)Cc2cc(F)cc(C(F)(F)F)c2)c2c(N)ncnc21 | GSK3B | low
CCNC(=O)/C=C/c1n[nH]c2cc(Sc3ccccc3C(=O)NC)ccc12 | GSK3B | high
CNc1nccc(-c2ccc3c(N)n[nH]c3c2)n1 | GSK3B | low
CCNc1nccc(-c2c(-c3ccc(F)cc3)ncn2C2CCN(C)CC2)n1 | GSK3B | low
Cl.O=C(Nc1ccc(Oc2ccc3[nH]c(NC(=O)c4ccco4)nc3c2)cc1)Nc1cc(C(F)(F)F)ccc1F | GSK3B | medium
COc1cccc(-c2nc(-c3ccccc3)[nH]c2-c2ccncc2)c1 | GSK3B | medium
CC(C)c1nc(-c2ccc(F)c(NS(=O)(=O)c3c(F)cccc3F)c2)c(-c2ccnc(Nc3ccc(N4CCOCC4)nc3)n2)s1 | GSK3B | high
COc1cccc(NC(=O)NCCNc2ccnc(Nc3ccc(F)cc3)n2)c1 | GSK3B | medium
CC(C)(C)c1ccc(C(=O)Nc2cn3cc(-n4ccnc4)ccc3n2)cc1 | GSK3B | medium
COc1cc(Nc2nccc(N3CCC(NS(=O)(=O)c4ccc(NC(C)=O)cc4)CC3)n2)cc(OC)c1OC | GSK3B | medium
Cl.Cl.NCC(NC(=O)c1cc(-c2cccnc2)c(-c2ccnc3[nH]ccc23)s1)c1ccccc1 (stereo not drawn) | GSK3B | high
CN(C)CCNS(=O)(=O)c1ccc(-c2ccnc3[nH]ccc23)cc1 | GSK3B | medium
N#Cc1cnc2cc(-c3cnc(CNCCN4CCOCC4)s3)ccc2c1Nc1ccc(Oc2ccccc2)cc1 | GSK3B | medium
CN(c1ccc(NC(=O)Nc2cccc(Cl)c2)cc1)c1ccnc(N)n1.Cl | GSK3B | low
Cc1ccc(O)cc1Nc1ccnc2cc(-c3ccc(CN4CCCCC4)o3)ccc12 | GSK3B | low
